Assay: inhibitors of Clostridioides difficile proliferation – 4-point retest, confirmation (AID 1224921);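 note: plate controls were DMSO wells for no effect and levofloxacin 16 µg/mL wells for full effect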
Details: Clostridioides difficile clinical isolate growth, OD600, 24 h, stronger effect = lower value; at 30 µM unless noted
The campaign covered roughly 1,400 compounds. About 350 (25%) were called active. About 2% were inconclusive and are not listed. These entries were drawn from the full list. Measured potencies and affinities stand elsewhere.
Metric Name: max activity

Use these answered entries as a reference point.
[
  {
    "Smiles Repr": "C[C@H]1CN([C@@H](C)CO)C(=O)c2cc(NC(=O)Cc3ccccc3)ccc2O[C@@H]1CN(C)C(=O)Nc1ccccc1",
    "Experimental Result": "-13.4% [at 0.5 µM] (inactive)"
  },
  {
    "Smiles Repr": "N#C[C@H]1[C@@H](c2ccc(C#CC3CCCCC3)cc2)[C@@H](CO)N1S(=O)(=O)c1ccccc1",
    "Experimental Result": "31.9% [at 8 µM] (inactive)"
  },
  {
    "Smiles Repr": "O=C(C[C@@H]1CC[C@H](NC(=O)CCN2CCCCC2)[C@@H](CO)O1)Nc1nccs1",
    "Experimental Result": "-9.66% [at 1.95 µM] (inactive)"
  }
]

State the recorded max activity for every item in the following list.
1. CN(C)CC(=O)N1[C@@H](C#N)[C@H](c2ccc(C#CC3CCCCC3)cc2)[C@@H]1CO
2. COc1cccc(NC(=O)N[C@@H]2C=C[C@H](CC(=O)NCc3ccncn3)O[C@H]2CO)c1
3. C[C@@H]1CN([C@@H](C)CO)C(=O)c2cc(/C=C/c3ccccc3)cnc2O[C@H]1CN(C)C(=O)NC1CCCCC1
4. CO[C@@H]1CN(C)C(=O)c2ccc(NC(=O)C3CC3)cc2OC[C@H](C)N(Cc2cncnc2)C[C@@H]1C
5. C[C@@H]1CN([C@@H](C)CO)C(=O)c2cccc(NS(C)(=O)=O)c2O[C@@H]1CN(C)Cc1ccccc1
6. N#C[C@H]1[C@@H](c2ccc(C#CC3CCCC3)cc2)[C@@H](CO)N1S(=O)(=O)Cc1ccccc1

Return:
1: 22.7% [at 8 µM] (inactive); 2: 11.5% (inactive); 3: -30.5% [at 8 µM] (inactive); 4: -6.19% [at 1.95 µM] (inactive); 5: -11.2% [at 8 µM] (inactive); 6: 29.9% [at 8 µM] (inactive)

I need max activity for every entry listed below, if you could help.
1. Cc1ccccc1S(=O)(=O)NCC[C@H]1CC[C@H](NC(=O)Nc2cccc(Cl)c2)[C@H](CO)O1
2. CCCN1C[C@H](C)[C@@H](OC)CN(C)C(=O)c2ccc(NC(=O)CC)cc2OC[C@H]1C
3. CN(C)CC(=O)N1[C@H](C#N)[C@H](c2ccc(C#CC3CCCCC3)cc2)[C@@H]1CO
4. C[C@@H]1CN([C@@H](C)CO)C(=O)c2cc(NC(=O)Nc3ccc(C(F)(F)F)cc3)ccc2O[C@@H]1CN(C)Cc1ccc(Oc2ccccc2)cc1

Return:
1. 6.17% [at 35 µM] (inactive)
2. 5.45% [at 1.95 µM] (inactive)
3. 14.2% [at 8 µM] (inactive)
4. 30.2% (inactive)

====

Assay: inhibitors of Clostridioides difficile proliferation – 4-point retest, confirmation (AID 1224921);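 note: plate controls were DMSO wells for no effect and levofloxacin 16 µg/mL wells for full effect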
Conditions: Clostridioides difficile clinical isolate growth, OD600, 24 h, stronger effect = lower value; at 30 µM unless noted
Among all 1,400 compounds or so, about 350 (25%) were called active. Inconclusive results (about 2%) are left out. A selection follows. Entries with a potency or affinity are not part of this list.
Metric Name: max activity

Recorded results for 3 molecules are shown here.
[
  {
    "Smiles Repr": "CCC(=O)Nc1ccc2c(c1)OC[C@@H](C)N(Cc1ccccc1)C[C@H](C)[C@@H](OC)CN(C)C2=O",
    "max activity": "21.5% (inactive)"
  },
  {
    "Smiles Repr": "Cc1ccccc1-c1ccc2c(c1)O[C@@H](CN(C)Cc1ccncc1)[C@H](C)CN([C@@H](C)CO)S2(=O)=O",
    "max activity": "33.1% (inactive)"
  },
  {
    "Smiles Repr": "Cc1ccc(-c2cnc3c(c2)C(=O)N([C@@H](C)CO)C[C@H](C)[C@@H](CN(C)C(=O)c2ccccc2)O3)cc1",
    "max activity": "-9.22% [at 0.5 µM] (inactive)"
  }
]

Below: the item to evaluate.
Enquiry: Form field: reported max activity of "C[C@@H]1CN([C@@H](C)CO)C(=O)c2cc(C#C[C@@H](C)O)cnc2O[C@@H]1CN(C)Cc1ccc(-c2ccccc2)cc1"
Return: 27.9% (inactive)
